- System: ACHN renal
- ASSAY_EXPLANATION: NCI tumour cell line growth inhibition, 48 h; in the data active = GI50 below about 0.43 µM; inactive = the rest
Outcome codes: 1.0 (active), 0.0 (inactive)

[[record]]
molecule = "CCN(CC)CCCC(C)Nc1c2ccc(Cl)cc2nc2ccc(O)cc12 (stereo not drawn)"
discrete_label = 0.0

[[record]]
molecule = "NC(=O)NS(=O)(=O)c1ccc(N2N=C(C(F)(F)F)CC2c2cc(C(F)(F)F)cc(C(F)(F)F)c2)cc1 (stereo not drawn)"
discrete_label = 0.0

[[record]]
molecule = "CCC[CH2][Sn]1([CH2]CCC)[O]C(=O)CN=Cc2c(ccc3ccccc23)[O]1"
discrete_label = 1.0

[[record]]
molecule = "COc1ccc2c(c1)CCCN2c1c2ccccc2nc2ccccc12"
discrete_label = 0.0

[[record]]
molecule = "COc1ccc(-c2nc(-c3nc4ccc(Cl)cc4[nH]3)c3ccccn23)cc1"
discrete_label = 0.0

[[record]]
molecule = "COC(=O)Nc1nc2ccc(Oc3ccc(NC(=O)Nc4cc(C(F)(F)F)ccc4F)cc3)cc2s1"
discrete_label = 0.0

[[record]]
molecule = "COc1ccc(-c2onc(N)c2-c2cc(OC)c3c(c2)OCO3)cc1"
discrete_label = 0.0

[[record]]
molecule = "Cc1cc(-c2cnn3c(NCC4CC(C)(O)C4)cc(Oc4cccnc4)nc23)ccc1C(=O)NC1CC1 (stereo not drawn)"
discrete_label = 0.0


* * *

- Tested on: HCT-116 colon
- ASSAY_EXPLANATION: NCI tumour cell line growth inhibition, 48 h
PROPERTY_MEASURED: TGI

[[record]]
compound = "CCOC(=O)NC(=O)c1cn(CCNCCO)c(=O)[nH]c1=O"
recorded_result = "> 100 µM"

[[record]]
compound = "O=C(O)C1CCCN(CCc2c[nH]c3ccccc23)C1 (centres undefined)"
recorded_result = "> 100 µM"

[[record]]
compound = "Ic1ccc2c(c1)N(c1ccccc1)c1cc(N=c3ccc4nc5ccc(I)cc5n(-c5ccccc5)c-4c3)ccc1N2"
recorded_result = "> 100 µM"

[[record]]
compound = "N#CC(C#N)=C1Nc2ccccc2S1"
recorded_result = "> 100 µM"

[[record]]
compound = "CCOC(=O)/C(=C\\c1ccccc1)C(=O)O"
recorded_result = "> 100 µM"

[[record]]
compound = "CCCC(=O)OCC1OC(n2cnc3c(=S)nc[nH]c32)C(OC(=O)CCC)C1OC(=O)CCC (centres undefined)"
recorded_result = "> 100 µM"

[[record]]
compound = "COc1ccc2c(c1)-c1nc(=S)n(CCCN(C)C)c3ccc([N+](=O)[O-])c(c13)N2"
recorded_result = "2.93 µM"

[[record]]
compound = "O=C1c2[nH]c3ccc(Br)cc3c2CCN1Cc1ccc(Cl)cc1"
recorded_result = "23.5 µM"

[[record]]
compound = "O=[N+]([O-])c1ccc2c(c1)S(=O)(=O)N1Cc3ccccc3CCN21"
recorded_result = "> 100 µM"

[[record]]
compound = "CC(C)(C)/C(=N\\Nc1nc2ccccc2[nH]1)c1ccccn1"
recorded_result = "78 µM"

[[record]]
compound = "CC(C)(C)OC(=O)CN1C(=O)CC1CC(=O)c1ccccc1 (centres undefined)"
recorded_result = "49.7 µM"

[[record]]
compound = "O=S(=O)(O)C1=C2Sc3ccccc3N=C2c2ccccc2C1"
recorded_result = "28.5 µM"

[[record]]
compound = "O=C1CCC2(c3ccccc3)Nc3ccncc3N12 (centres undefined)"
recorded_result = "> 10 µM"

[[record]]
compound = "CCOC(=O)CCCNC(=O)CCCCC(=O)N(C)C"
recorded_result = "> 100 µM"

[[record]]
compound = "COc1cc(/C=N\\N(C)C)cc(/C=N/N(C)C)c1O"
recorded_result = "> 100 µM"

[[record]]
compound = "NC(=O)NS(=O)(=O)c1ccc(N2N=C(C(F)(F)F)CC2c2cc(C(F)(F)F)cc(C(F)(F)F)c2)cc1 (centres undefined)"
recorded_result = "14.7 µM"

[[record]]
compound = "COC(=O)C1=C(O)C(C(=O)OC)[C@]2(O)[C@H](C(=O)OC)[C@H]1C[C@@H](c1ccc(OC)c(OC)c1)[C@H]2C(=O)OC (some centres undefined)"
recorded_result = "> 100 µM"

[[record]]
compound = "O=C1Nc2ccccc2C1(c1ccc(O)cc1)c1ccc(O)cc1"
recorded_result = "31.6 µM"

[[record]]
compound = "CC(=O)N(C(C)=O)n1c(Cc2ccc(Cl)cc2)n[nH]c1=O"
recorded_result = "> 100 µM"


* * *

- Tested on: OVCAR-8 ovarian
- ASSAY_EXPLANATION: NCI tumour cell line growth inhibition, 48 h
Quick reference: TGI of the listed items.
PROPERTY_MEASURED: TGI

[[record]]
compound = "Cc1cc(-c2cnn3c(NCC4CC(C)(O)C4)cc(Oc4cccnc4)nc23)ccc1C(=O)NC1CC1 (stereo not drawn)"
recorded_result = "> 100 µM"

[[record]]
compound = "Cc1cc(C)c2c(O)c(S(=O)(=O)c3ccc(Cl)cc3)c(=O)oc2c1"
recorded_result = "> 100 µM"

[[record]]
compound = "Nc1nccc(-c2c(-c3ccc(F)cc3)ncn2C2CCC(O)CC2)n1 (stereo not drawn)"
recorded_result = "> 25 µM"


* * *

- Tested on: M14 melanoma
- ASSAY_EXPLANATION: NCI tumour cell line growth inhibition, 48 h
PROPERTY_MEASURED: TGI

[[record]]
compound = "O=C(N/C(=C\\c1cccc([N+](=O)[O-])c1)c1nc2ccc([N+](=O)[O-])cc2[nH]1)c1ccccc1"
property_measured = "TGI"
recorded_result = "> 100 µM"

[[record]]
compound = "CS(=O)(=O)CCNCc1ccc(-c2ccc3ncnc(Nc4ccc(OCc5ccccc5)cc4)c3c2)o1"
property_measured = "TGI"
recorded_result = "9.74 µM"

[[record]]
compound = "Clc1ccccc1-c1nc2ccc(C34CC5CC(CC(C5)C3)C4)cc2[nH]1"
property_measured = "TGI"
recorded_result = "70.7 µM"

[[record]]
compound = "COc1ccc(-c2onc(N)c2-c2cc(OC)c3c(c2)OCO3)cc1"
property_measured = "TGI"
recorded_result = "7.28 µM"

[[record]]
compound = "CC1(C)OC2=C(CC1Br)C(=O)C(=O)c1ccccc12 (centres undefined)"
property_measured = "TGI"
recorded_result = "3.64 µM"

[[record]]
compound = "CC(C)(C)C(=O)OCOP(=O)(OCOC(=O)C(C)(C)C)OCC1OC(n2ccc(=O)[nH]c2=O)C(N=[N+]=[N-])C1O (centres undefined)"
property_measured = "TGI"
recorded_result = "14.3 µM"

[[record]]
compound = "Cc1cc(Cl)cc2c1NC(=O)C2(O)CC(=O)c1ccco1 (centres undefined)"
property_measured = "TGI"
recorded_result = "> 100 µM"

[[record]]
compound = "O=C(O)CCSC(=O)Nc1ccc([N+](=O)[O-])cc1"
property_measured = "TGI"
recorded_result = "> 100 µM"

[[record]]
compound = "O=c1[nH]nc(-c2ccccc2)n1-c1ccncc1"
property_measured = "TGI"
recorded_result = "> 100 µM"


* * *

- System: MDA-MB-435
- ASSAY_EXPLANATION: NCI tumour cell line growth inhibition, 48 h
PROPERTY_MEASURED: TGI

[[record]]
molecule = "CC(C)(C)/C(=N\\Nc1nc2ccccc2[nH]1)c1ccccn1"
property_measured = "TGI"
recorded_result = "> 100 µM"

[[record]]
molecule = "O=C(O)C(=Cc1ccc(-c2ccccc2)cc1)C(=O)O"
property_measured = "TGI"
recorded_result = "> 64.8 µM"

[[record]]
molecule = "Cc1ccc2c(c1)Sc1c(ccc3ccccc13)N2"
property_measured = "TGI"
recorded_result = "> 100 µM"

[[record]]
molecule = "O=C1c2cccc([N+](=O)[O-])c2C(=O)N1c1ncn[nH]1"
property_measured = "TGI"
recorded_result = "> 100 µM"

[[record]]
molecule = "Clc1ccccc1-c1nc2ccc(C34CC5CC(CC(C5)C3)C4)cc2[nH]1"
property_measured = "TGI"
recorded_result = "> 100 µM"

[[record]]
molecule = "COC(=O)c1cc(C)ccc1C1CN=NC12Cc1ccc(C)cc1C2=O (centres undefined)"
property_measured = "TGI"
recorded_result = "> 100 µM"

[[record]]
molecule = "N#Cc1c(=O)n(-c2ccccc2)c(O)c2c(N)n[nH]c12"
property_measured = "TGI"
recorded_result = "> 100 µM"

[[record]]
molecule = "Cc1cc(S(=O)(=O)Nc2nc(N)n(-c3ccccn3)n2)c(S)cc1Cl"
property_measured = "TGI"
recorded_result = "> 100 µM"

[[record]]
molecule = "O=C(Cn1c2c(c3ccccc31)CCCC2)N1CCCC1"
property_measured = "TGI"
recorded_result = "> 100 µM"

[[record]]
molecule = "OCCCNc1nc(=S)[nH]c2[nH]ncc12"
property_measured = "TGI"
recorded_result = "> 100 µM"

[[record]]
molecule = "CCN(CC)CCn1nc(N)c2nc3ccccc3nc21"
property_measured = "TGI"
recorded_result = "> 100 µM"

[[record]]
molecule = "O=C1CCC2(c3ccccc3)Nc3ccncc3N12 (centres undefined)"
property_measured = "TGI"
recorded_result = "> 10 µM"

[[record]]
molecule = "CCCC(=O)OCC1OC(n2cnc3c(=S)nc[nH]c32)C(OC(=O)CCC)C1OC(=O)CCC (centres undefined)"
property_measured = "TGI"
recorded_result = "> 100 µM"

[[record]]
molecule = "O=C(O)COCC(=O)N(CCOCCN(Cc1ccccc1)C(=O)COCC(=O)O)Cc1ccccc1"
property_measured = "TGI"
recorded_result = "> 100 µM"

[[record]]
molecule = "Cc1ccc(C(=O)NC(C)C)cc1-c1ccc(C(=O)NCC2CC2)cc1"
property_measured = "TGI"
recorded_result = "> 25 µM"

[[record]]
molecule = "Cc1ccc(C(=O)N(CCCN)C(c2oc3cc(Cl)ccc3c(=O)c2Cc2ccccc2)C(C)C)cc1 (centres undefined)"
property_measured = "TGI"
recorded_result = "< 0.01 µM"

[[record]]
molecule = "O=c1cc(N2CCNCC2)nc2ccccn12"
property_measured = "TGI"
recorded_result = "> 100 µM"

[[record]]
molecule = "CCOC(=S)SSSC(=S)OCC"
property_measured = "TGI"
recorded_result = "> 100 µM"

[[record]]
molecule = "Cc1cc2cc3c(cc2c(-c2ccc([N+](=O)[O-])cc2)n1)OCO3"
property_measured = "TGI"
recorded_result = "> 100 µM"

[[record]]
molecule = "C[N+](C)(C)CCCSc1nc2ccccc2[nH]1"
property_measured = "TGI"
recorded_result = "> 100 µM"

[[record]]
molecule = "c1ccc(-c2cn3c(nc4ccccc43)c(-c3ccccc3)n2)cc1"
property_measured = "TGI"
recorded_result = "> 100 µM"

[[record]]
molecule = "N#CC12CNCC1CN=N2 (centres undefined)"
property_measured = "TGI"
recorded_result = "> 100 µM"

[[record]]
molecule = "OC1(c2ccccc2)C2CCN(CC2)C1CN1CCOCC1 (centres undefined)"
property_measured = "TGI"
recorded_result = "> 100 µM"

[[record]]
molecule = "c1nc(N2CC2)c2cnn(C3CCCCO3)c2n1 (centres undefined)"
property_measured = "TGI"
recorded_result = "> 100 µM"

